Assay: Partition coefficient, log P of the compound by UV-metric method
Format: physicochemical
Conditions: octanol/water
value.type: logP

compound.smiles: C[C@@H]1CN(C(=O)c2nc(Nc3cc(C4CC4)[nH]n3)c3cc(Cl)ccc3n2)CCN1.Cl
value.type: logP
test.result: 2.54

---

Species: Homo sapiens
Assay: Selectivity index, ratio of Ki for human PAK1 to Ki for human PAK4
Outcome: Criterion met for Ratio Ki of at least 60; Criterion not met for anything lower.

compound.smiles: C[C@@H]1CNCCN1C(=O)c1nc(Nc2cc(C3CC3)[nH]n2)c2cc(Cl)ccc2n1
category.label: Criterion met
//
compound.smiles: COc1ccc2nc(C(=O)N3CCN[C@H](C)C3)nc(Nc3cc(C4CC4)[nH]n3)c2c1
category.label: Criterion met
//
compound.smiles: C[C@@H]1CN(C(=O)c2nc(Nc3cc(C4CC4)[nH]n3)c3cc(F)ccc3n2)CCN1
category.label: Criterion not met
//
compound.smiles: Cc1cc(Nc2nc(C(=O)N3CCNCC3)nc3ccc(Cl)cc23)n[nH]1
category.label: Criterion met
//
compound.smiles: O=C(c1nc(Nc2cc(C3CC3)[nH]n2)c2cc(Cl)ccc2n1)N1CCNCC1
category.label: Criterion met
//
compound.smiles: C[C@H]1CNCCN1C(=O)c1nc(Nc2cc(C3CC3)[nH]n2)c2cc(Cl)ccc2n1
category.label: Criterion not met
//
compound.smiles: NC1CCN(c2nc(Nc3cc(C4CC4)[nH]n3)c3cc(Cl)ccc3n2)CC1
category.label: Criterion not met
//
compound.smiles: C[C@@H]1CN(C(=O)c2nc(Nc3cc(C4CC4)[nH]n3)c3cc(Br)ccc3n2)CCN1
category.label: Criterion met
//
compound.smiles: C[C@@H]1CN(C(=O)c2nc(Nc3cc(C4CC4)[nH]n3)c3cc(Cl)ccc3n2)CCN1
category.label: Criterion met
//
compound.smiles: C[C@@H]1CN(C(=O)c2nc(Nc3cc(C4CC4)[nH]n3)c3ccc(Cl)cc3n2)CCN1
category.label: Criterion not met
//
compound.smiles: C[C@H]1CN(C(=O)c2nc(Nc3cc(C4CC4)[nH]n3)c3cc(Cl)ccc3n2)CCN1
category.label: Criterion not met
//
compound.smiles: Cc1cc(Nc2nc(C(=O)N3CCN[C@H](C)C3)nc3ccc(Cl)cc23)n[nH]1
category.label: Criterion met

---

Target: hERG (KCNH2) (Homo sapiens, UniProt Q12809)
Sequence (Q12809 whole entry): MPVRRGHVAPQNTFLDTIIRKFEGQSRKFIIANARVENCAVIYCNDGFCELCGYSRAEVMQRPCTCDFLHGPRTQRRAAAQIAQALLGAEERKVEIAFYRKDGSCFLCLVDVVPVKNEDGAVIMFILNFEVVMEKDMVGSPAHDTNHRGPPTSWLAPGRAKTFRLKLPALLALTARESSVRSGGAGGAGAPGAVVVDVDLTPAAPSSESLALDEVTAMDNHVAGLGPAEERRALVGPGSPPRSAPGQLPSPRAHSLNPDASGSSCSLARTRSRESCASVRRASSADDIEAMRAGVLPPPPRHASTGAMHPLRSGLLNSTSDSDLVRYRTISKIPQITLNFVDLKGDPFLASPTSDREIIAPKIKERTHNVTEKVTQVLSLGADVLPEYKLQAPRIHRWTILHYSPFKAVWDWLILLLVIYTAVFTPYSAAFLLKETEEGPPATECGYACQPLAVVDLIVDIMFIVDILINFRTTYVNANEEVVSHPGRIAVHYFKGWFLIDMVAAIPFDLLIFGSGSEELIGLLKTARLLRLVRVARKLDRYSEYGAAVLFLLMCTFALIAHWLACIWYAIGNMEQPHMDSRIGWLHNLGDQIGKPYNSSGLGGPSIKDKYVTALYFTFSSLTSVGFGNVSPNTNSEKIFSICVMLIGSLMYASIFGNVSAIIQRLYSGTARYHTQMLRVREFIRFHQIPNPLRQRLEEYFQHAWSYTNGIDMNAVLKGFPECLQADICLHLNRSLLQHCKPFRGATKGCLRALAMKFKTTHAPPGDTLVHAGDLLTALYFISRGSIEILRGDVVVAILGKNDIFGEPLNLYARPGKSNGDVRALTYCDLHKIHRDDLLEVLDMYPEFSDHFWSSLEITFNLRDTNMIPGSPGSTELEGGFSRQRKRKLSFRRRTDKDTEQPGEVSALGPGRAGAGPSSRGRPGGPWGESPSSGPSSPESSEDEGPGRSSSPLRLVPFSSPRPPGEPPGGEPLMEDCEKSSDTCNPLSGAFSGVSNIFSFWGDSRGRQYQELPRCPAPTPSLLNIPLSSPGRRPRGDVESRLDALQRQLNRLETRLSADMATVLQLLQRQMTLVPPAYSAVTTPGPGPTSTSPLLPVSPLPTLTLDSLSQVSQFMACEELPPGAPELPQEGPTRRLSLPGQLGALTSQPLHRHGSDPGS
Assay: Inhibition of human ERG at 40 uM by Qpatch assay relative to control
value.type: inhibition at 40 µM (%)

compound.smiles: C[C@@H]1CN(C(=O)c2nc(Nc3cc(C4CC4)[nH]n3)c3cc(Cl)ccc3n2)CCN1.Cl
test.result: 42

---

Assay: Aqueous solubility of the compound at pH 7.4 by UV-metric method
Assay type: physicochemical

compound.smiles: C[C@@H]1CN(C(=O)c2nc(Nc3cc(C4CC4)[nH]n3)c3cc(Cl)ccc3n2)CCN1.Cl
solubility: > 10000 µg/mL

---

Test: Dissociation constant, pKa of compound
Type: physicochemical

compound.smiles: C[C@@H]1CN(C(=O)c2nc(Nc3cc(C4CC4)[nH]n3)c3cc(Cl)ccc3n2)CCN1.Cl
pKa: 7.93

---

In this section, each of the compounds is paired with its reported Ki.
Molecular target: Serine/threonine-protein kinase PAK 4 (Homo sapiens)
Sequence (O96013 whole entry): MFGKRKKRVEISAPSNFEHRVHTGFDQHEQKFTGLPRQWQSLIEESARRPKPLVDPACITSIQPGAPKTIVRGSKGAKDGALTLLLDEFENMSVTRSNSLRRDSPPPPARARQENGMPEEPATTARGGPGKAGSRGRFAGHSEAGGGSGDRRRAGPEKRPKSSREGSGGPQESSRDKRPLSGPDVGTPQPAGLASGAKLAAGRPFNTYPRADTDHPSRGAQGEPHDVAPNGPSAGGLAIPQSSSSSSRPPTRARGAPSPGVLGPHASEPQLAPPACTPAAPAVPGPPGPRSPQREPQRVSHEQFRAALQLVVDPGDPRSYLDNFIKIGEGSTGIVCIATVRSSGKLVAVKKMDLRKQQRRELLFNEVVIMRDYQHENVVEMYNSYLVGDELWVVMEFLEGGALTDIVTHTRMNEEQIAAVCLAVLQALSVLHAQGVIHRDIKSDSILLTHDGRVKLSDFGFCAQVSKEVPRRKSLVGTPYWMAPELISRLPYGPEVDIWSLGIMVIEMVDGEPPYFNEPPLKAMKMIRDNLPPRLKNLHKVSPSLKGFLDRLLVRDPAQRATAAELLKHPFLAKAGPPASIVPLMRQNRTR

compound: Cc1cc(Nc2nc(C(=O)N3CCNC[C@@H]3C)nc3ccc(Cl)cc23)n[nH]1
study.system: Serine/threonine-protein kinase PAK 4 (Homo sapiens)
unit.spec: nM
Ki: 218
//
compound: COc1ccc2nc(C(=O)N3CCN[C@H](C)C3)nc(Nc3cc(C4CC4)[nH]n3)c2c1
study.system: Serine/threonine-protein kinase PAK 4 (Homo sapiens)
unit.spec: nM
Ki: 36
//
compound: Cc1cc(Nc2nc(C(=O)N3CCC(C)(N)CC3)nc3ccc(Cl)cc23)n[nH]1
study.system: Serine/threonine-protein kinase PAK 4 (Homo sapiens)
unit.spec: nM
Ki: 674
//
compound: NC1CCN(c2nc(Nc3cn(C4CC4)cn3)c3cc(Cl)ccc3n2)CC1
study.system: Serine/threonine-protein kinase PAK 4 (Homo sapiens)
unit.spec: nM
Ki: 652
//
compound: Cc1cc(Nc2nc(C(=O)N3CC(C)NC(C)C3)nc3ccc(Cl)cc23)n[nH]1 (mixture of isomers)
study.system: Serine/threonine-protein kinase PAK 4 (Homo sapiens)
unit.spec: nM
Ki: 119
//
compound: Cc1cc(Nc2nc(C(=O)N3CCC(O)CC3)nc3ccc(Cl)cc23)n[nH]1
study.system: Serine/threonine-protein kinase PAK 4 (Homo sapiens)
unit.spec: nM
Ki: 3820

All values here come from ChEMBL document CHEMBL4028914.
